Target: β-secretase (BACE) (Homo sapiens)
Construct: purchased Panvera
Assay: BACE FS1 % Inhibition Assay
Assay type: biochemical
Details: 10 μM test compound
Protocol: The following reagents were used in this assay: sodium acetate, PEG8000 (Sigma), DMSO, HEPES, FS1 substrate [[…]] […] The FS1-substrate stock solution was prepared in DMSO as a 10 mg/mL solution. The FS1-substrate working solution was prepared by diluting the 10 mg/mL stock solution with substrate assay buffer to a final concentration of 300 μg/mL. […] For test compounds, % inhibition was determined at each concentration as follows: [formula]
PARAMETER_MEASURED: % Inhibition (FS) (%)
Report as a plain number; the unit % is understood.

NC1=Nc2ccc(Oc3ccccc3)cc2CN1C1CCN(C(=O)C2CCCCC2)C1 (centres unmarked) [Compound 119] = 75

Problem: Fill in the blank: the reported % Inhibition (FS) of NC1=Nc2ccc(Oc3ccccc3)cc2CN1CCNC(=O)C1CC1c1ccccc1 (centres unmarked) [Compound 139] is ____.
Result: 61

Problem: Fill in the blank: the reported % Inhibition (FS) of CCCC(CCCC(=O)N(C)C1CCCCC1)N1Cc2cc(Oc3ccccc3)ccc2N=C1N (centres unmarked) [Compound 90] is ____.
Result: 124

Problem: Fill in the blank: the reported % Inhibition (FS) of NC1=Nc2ccc(Oc3ccccc3)cc2CN1CCNC(=O)CCc1ccccc1 [Compound 155] is ____.
Result: 49

Problem: Fill in the blank: the reported % Inhibition (FS) of NC1=Nc2ccc(Oc3ccccc3)cc2CN1CCCNC(=O)C1CCC1 [Compound 144] is ____.
Result: 59

Problem: Fill in the blank: the reported % Inhibition (FS) of NC1=Nc2ccc(Oc3ccccc3)cc2CN1CCCNC(=O)C1CC1 [Compound 143] is ____.
Result: 32

Problem: Fill in the blank: the reported % Inhibition (FS) of COc1ccc2c(c1)C(CC(=O)N(C)C1CCCCC1)CC2N1Cc2cc(Oc3ccccc3)ccc2N=C1N (centres unmarked) [Compound 146] is ____.
Result: 39

Problem: Fill in the blank: the reported % Inhibition (FS) of CCCC(CCC(=O)NC1CCCCC1)N1Cc2cc(Oc3ccccc3)ccc2N=C1N (centres unmarked) [Compound 129] is ____.
Result: 113

###

Items are presented alongside their recorded % Inhibition (FS).
Biological target: β-secretase (BACE) (Homo sapiens, UniProt P56817)
Construct: purchased Panvera
Sequence (P56817 46-501): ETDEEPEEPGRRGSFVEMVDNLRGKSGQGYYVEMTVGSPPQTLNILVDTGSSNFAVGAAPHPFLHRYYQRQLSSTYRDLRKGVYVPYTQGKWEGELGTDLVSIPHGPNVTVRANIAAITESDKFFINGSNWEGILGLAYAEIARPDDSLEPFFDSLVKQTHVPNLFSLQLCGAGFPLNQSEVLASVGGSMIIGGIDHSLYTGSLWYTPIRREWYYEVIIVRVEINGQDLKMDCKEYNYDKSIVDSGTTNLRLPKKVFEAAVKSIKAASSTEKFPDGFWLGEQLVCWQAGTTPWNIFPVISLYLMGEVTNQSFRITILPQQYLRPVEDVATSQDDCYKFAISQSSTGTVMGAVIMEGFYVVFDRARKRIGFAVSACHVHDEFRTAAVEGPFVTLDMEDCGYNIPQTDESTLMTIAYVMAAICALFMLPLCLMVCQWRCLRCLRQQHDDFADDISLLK
Assay: BACE FS1 % Inhibition Assay
Assay type: biochemical
Conditions: 10 μM test compound
Report as a plain number; the unit % is understood.

NC1=Nc2ccc(Oc3ccccc3)cc2CN1C1CCN(C(=O)C2CCCC2)C1 (stereo not drawn) = 34
CC(C)(C)c1ccc(C(=O)NCCN2Cc3cc(Oc4ccccc4)ccc3N=C2N)cc1 = 40

Then this compound:
Problem: Fill in the blank: the reported % Inhibition (FS) of NC1=Nc2ccc(Oc3ccccc3)cc2CN1CCCCNC(=O)C1CCCCC1 is ____.
Result: 105

###

Target: β-secretase (BACE) (Homo sapiens, UniProt P56817)
Construct: purchased Panvera
Experiment: BACE % Inhibition Assay ((Aedens)-[…]-(Dabcyl K-amide) substrate)
Assay type: biochemical
Conditions: 3 μM compound; % error ±10%
PARAMETER_MEASURED: % Inhibition

The examples below pair each entry with its known result.
CN(C(=O)[C@@H]1CCCC[C@@H]1N1Cc2cc(Oc3ccccc3)ccc2N=C1N)C1CCCCC1 = <30%
CCCC(CCC)C(=O)NCc1cccc(CN2Cc3cc(Oc4ccccc4)ccc3N=C2N)c1 = <30%
Cc1ccc(S(=O)(=O)NCCN2Cc3cc(Oc4ccccc4)ccc3N=C2N)cc1 = <30%
CN(C(=O)c1cccc(N2Cc3cc(Oc4ccccc4)ccc3N=C2N)c1)C1CCCCC1 = <30%
CCCC(CCCC(=O)N(CC)C1CCCCC1)N1Cc2cc(Oc3ccccc3)ccc2N=C1N (stereo not shown) = <30%

Problem: Fill in the blank: the reported % Inhibition of CCCC(CNC(=O)C1CCCCC1)N1Cc2cc(Oc3ccccc3)ccc2N=C1N (stereo not shown) is ____.
Result: 118%

Problem: Fill in the blank: the reported % Inhibition of CN(C(=O)C1CCC(CN2Cc3cc(Oc4ccccc4)ccc3N=C2N)CC1)C1CCCCC1 (stereo not shown) is ____.
Result: <30%

Problem: Fill in the blank: the reported % Inhibition of CN(C(=O)[C@@H]1CC[C@H](N2Cc3cc(Oc4ccccc4)ccc3N=C2N)C1)C1CCCCC1 is ____.
Result: <30%

Problem: Fill in the blank: the reported % Inhibition of CN(C(=O)[C@@H]1CCC[C@@H]1N1Cc2cc(Oc3ccccc3)ccc2N=C1N)C1CCCCC1 is ____.
Result: <30%

Problem: Fill in the blank: the reported % Inhibition of NC1=Nc2ccc(Oc3ccccc3)cc2CN1Cc1cccc(CNC(=O)C23CC4CC(CC(C4)C2)C3)c1 is ____.
Result: <30%

###

Biological target: β-secretase (BACE) (Homo sapiens, UniProt P56817)
Construct: purchased Panvera
Assay: BACE FS1 % Inhibition Assay
Assay type: biochemical
Details: 3 μM test compound
PARAMETER_MEASURED: % Inhibition (FS)

The examples below pair each entry with its known result.
Cc1cccc(Sc2ccc3c(c2)CN(Cc2cccc(C(=O)N(C)C4CCCCC4)c2)C(N)=N3)c1 = 118%
CN(C(=O)c1ncoc1C(Cc1ccccc1)N1Cc2cc(Oc3ccccc3)ccc2N=C1N)C1CCCCC1 (centres unmarked) = <30%
NC1=Nc2ccc(Oc3ccccc3)cc2CN1Cc1cccc(C(=O)NCCc2ccc(S(N)(=O)=O)cc2)c1 = <30%

Problem: Fill in the blank: the reported % Inhibition (FS) of CC(C)(C)C(=O)NCCN1Cc2cc(-c3ccncc3)ccc2N=C1N is ____.
Result: <30%

Problem: Fill in the blank: the reported % Inhibition (FS) of CN1CCCC1CCNC(=O)c1cccc(CN2Cc3cc(Oc4ccccc4)ccc3N=C2N)c1 (centres unmarked) is ____.
Result: <30%

Problem: Fill in the blank: the reported % Inhibition (FS) of CSc1ccccc1Oc1ccc2c(c1)CN(Cc1cccc(C(=O)N(C)C3CCCCC3)c1)C(N)=N2 is ____.
Result: <30%

Problem: Fill in the blank: the reported % Inhibition (FS) of CC(C)[C@@H](CCC(=O)N(C)C1CCCCC1)N1Cc2cc(Oc3ccccc3)ccc2N=C1N is ____.
Result: 30%

Problem: Fill in the blank: the reported % Inhibition (FS) of COc1ccc(C)cc1Oc1ccc2c(c1)CN(Cc1cccc(C(=O)N(C)C3CCCCC3)c1)C(N)=N2 is ____.
Result: <30%

###

Biological target: β-secretase (BACE) (Homo sapiens, UniProt P56817)
Construct: purchased Panvera
Assay: BACE % Inhibition Assay ((Aedens)-[…]-(Dabcyl K-amide) substrate)
Format: biochemical
Conditions: 3 μM compound; % error ±10%
PARAMETER_MEASURED: % Inhibition

Problem: Fill in the blank: the reported % Inhibition of NC1=Nc2ccc(Oc3ccccc3)cc2CN1Cc1cccc(CNC(=O)C(c2ccccc2)c2ccccc2)c1 [Compound 337] is ____.
Result: <30%

Problem: Fill in the blank: the reported % Inhibition of CCN(CC)CCN1Cc2cc(Oc3ccccc3)ccc2N=C1N [Compound 79] is ____.
Result: <30%

Problem: Fill in the blank: the reported % Inhibition of CN(C(=O)[C@H]1CCCC[C@H]1N1Cc2cc(Oc3ccccc3)ccc2N=C1N)C1CCCCC1 [Compound 81] is ____.
Result: <30%

Problem: Fill in the blank: the reported % Inhibition of CC(C)(C)OC(=O)N1CCC(N2Cc3cc(Oc4ccccc4)ccc3N=C2N)C1 (centres unmarked) [Compound 93] is ____.
Result: <30%

Problem: Fill in the blank: the reported % Inhibition of CCOC(=O)CCN1Cc2cc(Oc3ccccc3)ccc2N=C1N [Compound 65] is ____.
Result: <30%

Problem: Fill in the blank: the reported % Inhibition of CC(C)(C)OC(=O)NCC(C1CCCCC1)N1Cc2cc(Oc3ccccc3)ccc2N=C1N (centres unmarked) [Compound 367] is ____.
Result: 111%

Problem: Fill in the blank: the reported % Inhibition of CCCCC(CC)C(=O)NCC(c1ccccc1)N1Cc2cc(Oc3ccccc3)ccc2N=C1N (centres unmarked) [Compound 341] is ____.
Result: 72%

Problem: Fill in the blank: the reported % Inhibition of CN(C(=O)c1cc(CN2Cc3cc(Oc4ccccc4)ccc3N=C2N)ccn1)C1CCCCC1 [Compound 89] is ____.
Result: 77%

###

Target: β-secretase (BACE) (Homo sapiens)
Construct: purchased Panvera
Assay: BACE FS1 % Inhibition Assay
Assay type: biochemical
Conditions: 0.3 μM test compound
PARAMETER_MEASURED: % Inhibition (FS)

The examples below pair each entry with its known result.
NC1=Nc2ccc(-c3ccccc3F)cc2CN1CCNC(=O)C1CCC1 = 37%
NC1=Nc2ccc(Oc3ccccc3)cc2CN1Cc1cccc(C(=O)NC2CCCCC2)c1 = <30%
CN(C(=O)CCC(c1ccc(Cl)cc1)N1Cc2cc(Oc3ccccc3)ccc2N=C1N)C1CCCCC1 (centres unmarked) = <30%
NC1=Nc2ccc(-c3ccc(F)cc3)cc2CN1CCNC(=O)C1CCCCC1 [Compound 624] = <30%
CCCC=Cc1ccc2c(c1)CN(CCNC(=O)C(C)(C)C)C(N)=N2 = <30%

Problem: Report % Inhibition (FS) for NC1=Nc2ccc(Oc3ccccc3)cc2CN1Cc1cccc(CNC(=O)C2CCCCC2)c1 tested on β-secretase (BACE) (Homo sapiens).
Result: <30%

Problem: Report % Inhibition (FS) for CC(c1ccccc1)c1ccc2c(c1)CN(Cc1cccc(C(=O)N(C)C3CCCCC3)c1)C(N)=N2 (centres unmarked) tested on β-secretase (BACE) (Homo sapiens).
Result: <30%

Problem: Report % Inhibition (FS) for CC(C)CC(=O)NCCN1Cc2cc(Oc3ccccc3)ccc2N=C1N tested on β-secretase (BACE) (Homo sapiens).
Result: 51%
